In this section, each of the compounds is paired with its reported QT.
- System: rats
- Assay Info: Heart rate and ECG intervals in rats
- Assay type: in vivo, male Wistar rats
- Condition Set: 10 mg/kg i.p., time 60 min

>  <Input Smiles>
CC(=O)c1ccc(OCCCCCCCCN2CCN(c3ccncc3)CC2)cc1

>  <QT / ms>
63.8

$$$$
>  <Input Smiles>
c1ccc(-c2ccc(OCCCN3CCN(c4ccncc4)CC3)cc2)cc1

>  <QT / ms>
55

$$$$
>  <Input Smiles>
CCC(=O)c1ccc(OCCCCCCCCN2CCN(c3ccncc3)CC2)cc1

>  <QT / ms>
62.5

$$$$
>  <Input Smiles>
O=C(c1ccccc1)c1ccc(OCCCN2CCN(c3ccncc3)CC2)cc1

>  <QT / ms>
65.2

$$$$

----------
Listed below: Heart rate values for each entry.
- Test system: rats
- Assay Info: Heart rate and ECG intervals in rats
- Format: in vivo, male Wistar rats
- Condition Set: 10 mg/kg i.p., time 15 min
Readout Kind: Heart rate

>  <Input Smiles>
CCC(=O)c1ccc(OCCCCCCCCN2CCN(c3ccncc3)CC2)cc1

>  <Recorded Measurement>
356.3 ± 18.9 beats/min

$$$$
>  <Input Smiles>
O=C(c1ccccc1)c1ccc(OCCCN2CCN(c3ccncc3)CC2)cc1

>  <Recorded Measurement>
362.8 ± 38.0 beats/min

$$$$
>  <Input Smiles>
CC(=O)c1ccc(OCCCCCCCCN2CCN(c3ccncc3)CC2)cc1

>  <Recorded Measurement>
375.5 ± 23.9 beats/min

$$$$
>  <Input Smiles>
c1ccc(-c2ccc(OCCCN3CCN(c4ccncc4)CC3)cc2)cc1

>  <Recorded Measurement>
369.5 ± 9.5 beats/min

$$$$

----------
- Tested on: rats
- Assay Info: Heart rate and ECG intervals in rats
- Type: in vivo, male Wistar rats
- Condition Set: 10 mg/kg i.p., time 45 min
molecules and their reported QRS
Readout Kind: QRS

>  <Input Smiles>
CCC(=O)c1ccc(OCCCCCCCCN2CCN(c3ccncc3)CC2)cc1

>  <Readout Kind>
QRS

>  <Recorded Measurement>
20.0 ± 0.0 ms

$$$$
>  <Input Smiles>
c1ccc(-c2ccc(OCCCN3CCN(c4ccncc4)CC3)cc2)cc1

>  <Readout Kind>
QRS

>  <Recorded Measurement>
21.8 ± 0.8 ms

$$$$
>  <Input Smiles>
CC(=O)c1ccc(OCCCCCCCCN2CCN(c3ccncc3)CC2)cc1

>  <Readout Kind>
QRS

>  <Recorded Measurement>
20.0 ± 0.0 ms

$$$$
>  <Input Smiles>
O=C(c1ccccc1)c1ccc(OCCCN2CCN(c3ccncc3)CC2)cc1

>  <Readout Kind>
QRS

>  <Recorded Measurement>
20 ± 0.0 ms

$$$$

----------
- System: rats
- Assay Info: Heart rate and ECG intervals in rats
- Assay type: in vivo, male Wistar rats
- Condition Set: 10 mg/kg i.p., time 15 min

>  <Input Smiles>
CC(=O)c1ccc(OCCCCCCCCN2CCN(c3ccncc3)CC2)cc1

>  <QT (ms)>
63.8

$$$$
>  <Input Smiles>
CCC(=O)c1ccc(OCCCCCCCCN2CCN(c3ccncc3)CC2)cc1

>  <QT (ms)>
60.0

$$$$
>  <Input Smiles>
O=C(c1ccccc1)c1ccc(OCCCN2CCN(c3ccncc3)CC2)cc1

>  <QT (ms)>
64.4

$$$$
>  <Input Smiles>
c1ccc(-c2ccc(OCCCN3CCN(c4ccncc4)CC3)cc2)cc1

>  <QT (ms)>
56.3

$$$$

----------
- Test system: rats
- Assay Info: Heart rate and ECG intervals in rats
- Format: in vivo, male Wistar rats
- Condition Set: 10 mg/kg i.p., time 30 min
Listing: Heart rate of selected compounds
Readout Kind: Heart rate

>  <Input Smiles>
O=C(c1ccccc1)c1ccc(OCCCN2CCN(c3ccncc3)CC2)cc1

>  <Recorded Measurement>
365.2 ± 34.8 beats/min

$$$$
>  <Input Smiles>
CCC(=O)c1ccc(OCCCCCCCCN2CCN(c3ccncc3)CC2)cc1

>  <Recorded Measurement>
355.3 ± 32.2 beats/min

$$$$
>  <Input Smiles>
CC(=O)c1ccc(OCCCCCCCCN2CCN(c3ccncc3)CC2)cc1

>  <Recorded Measurement>
377.1 ± 27.3 beats/min

$$$$
>  <Input Smiles>
c1ccc(-c2ccc(OCCCN3CCN(c4ccncc4)CC3)cc2)cc1

>  <Recorded Measurement>
380.2 ± 30.5 beats/min

$$$$

----------
Examples of compounds with documented PQ follow.
- Test system: rats
- Assay Info: Heart rate and ECG intervals in rats
- Format: in vivo, male Wistar rats
- Condition Set: 10 mg/kg i.p., time 0 min

>  <Input Smiles>
O=C(c1ccccc1)c1ccc(OCCCN2CCN(c3ccncc3)CC2)cc1

>  <Unit Of Measure>
ms

>  <PQ>
57.5

$$$$
>  <Input Smiles>
c1ccc(-c2ccc(OCCCN3CCN(c4ccncc4)CC3)cc2)cc1

>  <Unit Of Measure>
ms

>  <PQ>
53

$$$$
>  <Input Smiles>
CC(=O)c1ccc(OCCCCCCCCN2CCN(c3ccncc3)CC2)cc1

>  <Unit Of Measure>
ms

>  <PQ>
56.3

$$$$
>  <Input Smiles>
CCC(=O)c1ccc(OCCCCCCCCN2CCN(c3ccncc3)CC2)cc1

>  <Unit Of Measure>
ms

>  <PQ>
56.3

$$$$

----------
- System: mice
- Assay Info: Motor coordination in the chimney test
- Type: in vivo, male Albino Swiss (CD-1) mice
- Condition Set: chimney test, 10 mg/kg i.p., 30 min after injection, n = 8
The entries below are paired with their reported % of Mice Impaired.
Readout Kind: % of Mice Impaired (%)

>  <Compound>
O=C(c1ccccc1)c1ccc(OCCCN2CCN(c3ccncc3)CC2)cc1 [KSK-63]

>  <Readout Kind>
% of Mice Impaired

>  <Recorded Measurement>
0

$$$$
>  <Compound>
c1ccc(-c2ccc(OCCCN3CCN(c4ccncc4)CC3)cc2)cc1 [KSK-61]

>  <Readout Kind>
% of Mice Impaired

>  <Recorded Measurement>
25

$$$$
>  <Compound>
CC(=O)c1ccc(OCCCCCCCCN2CCN(c3ccncc3)CC2)cc1 [KSK-73]

>  <Readout Kind>
% of Mice Impaired

>  <Recorded Measurement>
12.5

$$$$
>  <Compound>
CCC(=O)c1ccc(OCCCCCCCCN2CCN(c3ccncc3)CC2)cc1 [KSK-74]

>  <Readout Kind>
% of Mice Impaired

>  <Recorded Measurement>
0

$$$$

----------
- System: rats
- Assay Info: Heart rate and ECG intervals in rats
- Format: in vivo, male Wistar rats
- Condition Set: 10 mg/kg i.p., time 45 min

>  <Input Smiles>
O=C(c1ccccc1)c1ccc(OCCCN2CCN(c3ccncc3)CC2)cc1

>  <QT (ms)>
62.1

$$$$
>  <Input Smiles>
c1ccc(-c2ccc(OCCCN3CCN(c4ccncc4)CC3)cc2)cc1

>  <QT (ms)>
57.5

$$$$
>  <Input Smiles>
CC(=O)c1ccc(OCCCCCCCCN2CCN(c3ccncc3)CC2)cc1

>  <QT (ms)>
58.8

$$$$
>  <Input Smiles>
CCC(=O)c1ccc(OCCCCCCCCN2CCN(c3ccncc3)CC2)cc1

>  <QT (ms)>
65.0

$$$$

----------
- System: rats
- Assay Info: Heart rate and ECG intervals in rats
- Format: in vivo, male Wistar rats
- Condition Set: 10 mg/kg i.p., time 0 min

>  <Molecule>
c1ccc(-c2ccc(OCCCN3CCN(c4ccncc4)CC3)cc2)cc1 [KSK-61]

>  <Assayed System>
rats

>  <Unit Of Measure>
ms

>  <QRS>
20.8

$$$$
>  <Molecule>
O=C(c1ccccc1)c1ccc(OCCCN2CCN(c3ccncc3)CC2)cc1 [KSK-63]

>  <Assayed System>
rats

>  <Unit Of Measure>
ms

>  <QRS>
20.0

$$$$
>  <Molecule>
CC(=O)c1ccc(OCCCCCCCCN2CCN(c3ccncc3)CC2)cc1 [KSK-73]

>  <Assayed System>
rats

>  <Unit Of Measure>
ms

>  <QRS>
22.7

$$$$
>  <Molecule>
CCC(=O)c1ccc(OCCCCCCCCN2CCN(c3ccncc3)CC2)cc1 [KSK-74]

>  <Assayed System>
rats

>  <Unit Of Measure>
ms

>  <QRS>
20.0

$$$$

----------
- System: mice
- Assay Info: Locomotor activity in mice (activity cages, photobeam breaks)
- Type: in vivo, male Albino Swiss (CD-1) mice
- Condition Set: single i.p. 30 mg/kg b.w., vs vehicle group
Readout Kind: Locomotor activity

>  <Compound>
c1ccc(-c2ccc(OCCCN3CCN(c4ccncc4)CC3)cc2)cc1 [KSK-61]

>  <Recorded Measurement>
significant decrease

$$$$
>  <Compound>
O=C(c1ccccc1)c1ccc(OCCCN2CCN(c3ccncc3)CC2)cc1 [KSK-63]

>  <Recorded Measurement>
significant decrease

$$$$
>  <Compound>
CC(=O)c1ccc(OCCCCCCCCN2CCN(c3ccncc3)CC2)cc1 [KSK-73]

>  <Recorded Measurement>
significant decrease

$$$$
